# test target: HLA-B1501 (Homo sapiens, UniProt P01889, A329T/A93T/A95T/C349S/D201E/D98Y/E187L/E204Q/E69M/E70A/K202T/N87E/Q94N/R155S/R180W/S121R/S35A/S48A/V306I/V36M/Y140S/Y91S)
# protocol description: Competitive peptide binding assay, CIR-B1501
# stated conditions: HMy2.CIR-B1501 cells, reference Cy5-[…], class from inhibition at 5 and 15 μM, flow cytometry MFI; read-out: Binding affinity with HLA-B1501
Peptide text beside a SMILES is read from it.

[
  {
    "compound": "CC[C@H](C)[C@H](NC(=O)[C@H](CO)NC(=O)[C@H](CCC(N)=O)NC(=O)[C@H](CO)NC(=O)[C@H](C)NC(=O)[C@@H](N)C(C)C)C(=O)N[C@H](C(=O)N[C@@H](C)C(=O)N[C@@H](Cc1ccc(O)cc1)C(=O)O)[C@@H](C)CC [Epitope Y151] (H-VASQSIIAY-OH; N-terminus and C-terminus assumed)",
    "IC50": "> 15 µM"
  },
  {
    "compound": "CC[C@H](C)[C@H](NC(=O)[C@H](C)NC(=O)[C@H](C)NC(=O)[C@H](CC(N)=O)NC(=O)[C@H](CC(N)=O)NC(=O)[C@H](C)NC(=O)[C@@H]1CCCN1C(=O)[C@@H](N)CC(N)=O)C(=O)N[C@H](C(=O)O)C(C)C [Epitope Y18] (H-NPANNAAIV-OH; N-terminus and C-terminus assumed)",
    "IC50": "5 to 15 µM"
  },
  {
    "compound": "CC(C)[C@H](NC(=O)[C@@H](NC(=O)[C@@H](N)Cc1ccccc1)C(C)C)C(=O)N[C@@H](CO)C(=O)N[C@H](C(=O)NCC(=O)N[C@@H](Cc1ccc(O)cc1)C(=O)N[C@@H](Cc1c[nH]cn1)C(=O)N[C@@H](Cc1ccccc1)C(=O)O)[C@@H](C)O [Epitope Y167] (H-FVVSTGYHF-OH; N-terminus and C-terminus assumed)",
    "IC50": "> 15 µM"
  },
  {
    "compound": "CC(C)C[C@H](NC(=O)[C@H](Cc1c[nH]cn1)NC(=O)[C@H](Cc1ccccc1)NC(=O)[C@@H](NC(=O)[C@H](CC(=O)O)NC(=O)[C@H](C)NC(=O)[C@H](Cc1ccc(O)cc1)NC(=O)[C@H](CCC(=O)O)NC(=O)[C@@H](N)CCC(N)=O)C(C)C)C(=O)O [Epitope Y71] (H-QEYADVFHL-OH; N-terminus and C-terminus assumed)",
    "IC50": "5 to 15 µM"
  },
  {
    "compound": "CC[C@H](C)[C@H](NC(=O)[C@H](CC(N)=O)NC(=O)[C@H](CCCCN)NC(=O)[C@H](Cc1ccccc1)NC(=O)[C@@H](NC(=O)[C@@H](N)Cc1ccccc1)C(C)C)C(=O)N[C@@H](CC(=O)O)C(=O)NCC(=O)N[C@@H](Cc1ccc(O)cc1)C(=O)O [Epitope Y172] (H-FVFKNIDGY-OH; N-terminus and C-terminus assumed)",
    "IC50": "< 5 µM"
  },
  {
    "compound": "CC[C@H](C)[C@H](NC(=O)[C@H](CC(=O)O)NC(=O)[C@H](CCCNC(=N)N)NC(=O)CNC(=O)[C@H](Cc1ccccc1)NC(=O)[C@H](CCC(N)=O)NC(=O)[C@H](CCC(N)=O)NC(=O)[C@H](Cc1ccccc1)NC(=O)[C@@H]1CCCN1C(=O)[C@@H](N)CC(C)C)C(=O)O [Epitope Y282] (H-LPFQQFGRDI-OH; N-terminus and C-terminus assumed)",
    "IC50": "5 to 15 µM"
  }
]
